Assay: Biodistribution in Stomach content of C57BL/6 mouse bearing mouse B16-F0 cells at 0.74 to 0.92 MBq, iv after 1 hr
Type: ADME, organism-based
Conditions: in vivo
reported.metric: Drug uptake (% ID/g)

For orientation, consider the following solved cases.
smiles.code: CCN(CC)CCNC(=O)c1cc2cc([125I])ccc2[nH]1.Cl
units.symbol: % ID/g
readout.number: 35.41

smiles.code: CCN(CC)CCNC(=O)c1ccc2cc([125I])ccc2c1.Cl
units.symbol: % ID/g
readout.number: 27.82

smiles.code: CCN(CC)CCNC(=O)c1ccc2cc([125I])ccc2n1.Cl.Cl
units.symbol: % ID/g
readout.number: 48.03

P = CCN(CC)CCNC(=O)c1cc2cc([125I])ccc2o1.Cl
Q = CCN(CC)CCNC(=O)c1ccc([125I])nc1.Cl.Cl
Which one would you say has the larger Drug uptake value: P , or Q ? Could you answer with the label of the item you picked?
Q

a = CCN(CC)CCNC(=O)c1ccc2cncc([125I])c2n1.Cl.Cl
b = CCN(CC)CCNC(=O)c1cn2cc([125I])ccc2n1.Cl.Cl
Which one would you say has the larger Drug uptake value: a , or b ? Could you answer with the label of the item you picked?
a

a = CCN(CC)CCNC(=O)c1c[nH]c2ccc([125I])cc2c1=O.Cl.Cl
b = CCN(CC)CCNC(=O)c1cnc2cc([125I])ccc2n1.Cl.Cl
Select the item whose Drug uptake value is smaller, choosing between a and b . Could you answer with the label of the item you picked?
a
(a: 12.74 % ID/g, b: 24.33 % ID/g)

----------
Test system: Kidney
Assay: Biodistribution in kidney of C57BL/6 mouse bearing mouse B16-F0 cells at 0.74 to 0.92 MBq, iv after 3 hrs
Format: ADME, organism-based
Settings: in vivo
reported.metric: Drug uptake (% ID/g)

smiles.code: CCN(CC)CCNC(=O)c1ccc2cncc([125I])c2n1.Cl.Cl
Drug uptake / % ID/g: 1.51
//
smiles.code: CCN(CC)CCNC(=O)c1cc2cc([125I])ccc2o1.Cl
Drug uptake / % ID/g: 3.09
//
smiles.code: CCN(CC)CCNC(=O)c1ccc2cc([125I])ccc2c1.Cl
Drug uptake / % ID/g: 5.65
//
smiles.code: CCN(CC)CCNC(=O)c1nc2cc([125I])ccc2[nH]1.Cl.Cl
Drug uptake / % ID/g: 4.57
//
smiles.code: CCN(CC)CCNC(=O)c1ccc2cc([125I])ccc2n1.Cl.Cl
Drug uptake / % ID/g: 12.59

a = CCN(CC)CCNC(=O)c1cnc2cc([125I])ccc2n1.Cl.Cl
b = CCN(CC)CCNC(=O)c1cc2cc([125I])ccc2[nH]1.Cl
c = CCN(CC)CCNC(=O)c1cc2c([125I])cccc2cn1.Cl.Cl
d = CCN(CC)CCNC(=O)c1c[nH]c2ccc([125I])cc2c1=O.Cl.Cl
Your job: order these 4 records by Drug uptake, ascending. As an answer, provide the labels arranged in the order called for.
d, c, b, a
(d: 0.8 % ID/g, c: 2.66 % ID/g, b: 4.19 % ID/g, a: 9.3 % ID/g)

----------
Tested on: Spleen
Test: Biodistribution in spleen of C57BL/6 mouse bearing mouse B16-F0 cells at 0.74 to 0.92 MBq, iv after 6 hrs
Assay type: ADME, organism-based
Conditions: in vivo
reported.metric: Drug uptake (% ID/g)

For orientation, consider the following solved cases.
smiles.code: CCN(CC)CCNC(=O)c1ccc2cc([125I])ccc2n1.Cl.Cl
units.symbol: % ID/g
Drug uptake: 7.6

smiles.code: CCN(CC)CCNC(=O)c1cc2cc([125I])ccc2o1.Cl
units.symbol: % ID/g
Drug uptake: 11.34

smiles.code: CCN(CC)CCNC(=O)c1ccc([125I])nc1.Cl.Cl
units.symbol: % ID/g
Drug uptake: 2.35

A = CCN(CC)CCNC(=O)c1c[nH]c2ccc([125I])cc2c1=O.Cl.Cl
B = CCN(CC)CCNC(=O)c1ccc2cc([125I])ccc2c1.Cl
C = CCN(CC)CCNC(=O)c1nc2cc([125I])ccc2[nH]1.Cl.Cl
D = CCN(CC)CCNC(=O)c1cc2cc([125I])ccc2[nH]1.Cl
Your job: order these 4 records by Drug uptake, ascending. As an answer, provide the labels arranged in the order called for.
A, D, B, C
